Test system: MOLP-8 human multiple myeloma cell line
Assay: Caspase-Glo 3/7 apoptosis induction assay in MOLP-8 cells
Assay type: cell-based
Settings: Homo sapiens, MOLP-8, 2 h, caspase-3/7 activity, 2 hours at 37° C.; averaged over all runs on all batches; read-out: MOLP8 AC50
Threshold 0.1 µM: AC50 strictly smaller gives 1.0, otherwise 0.0.

These solved cases illustrate the format of a correct answer.
C[C@@H]1[C@@H](C)C/C=C(\F)[C@H](C(=O)N(C)CC2CCOCC2)N2CCC[C@H]2CN2C[C@@]3(CCCc4cc(Cl)ccc43)COc3ccc(cc32)C(=O)NS1(=O)=O [Compound 22] ... 1.0
C[C@@H]1[C@@H](C)C/C=C(\F)[C@H](C(=O)N2CCN(C)[C@@H](C)C2)N2CCC[C@H]2CN2C[C@@]3(CCCc4cc(Cl)ccc43)COc3ccc(cc32)C(=O)NS1(=O)=O [Compound 24] ... 0.0
C[C@@H]1[C@@H](C)C/C=C(\F)[C@H](C(=O)N2CCO[C@@H](C)C2)N2CCC[C@H]2CN2C[C@@]3(CCCc4cc(Cl)ccc43)COc3ccc(cc32)C(=O)NS1(=O)=O [Compound 6] ... 1.0
C[C@@H]1[C@@H](C)C/C=C(\F)[C@H](C(=O)N(C)CCn2cccn2)N2CCC[C@H]2CN2C[C@@]3(CCCc4cc(Cl)ccc43)COc3ccc(cc32)C(=O)NS1(=O)=O [Compound 61] ... 0.0
C[C@@H]1COCCN1C(=O)[C@H]1/C(F)=C/C[C@H](C)[C@@H](C)S(=O)(=O)NC(=O)c2ccc3c(c2)N(C[C@@H]2CCCN21)C[C@@]1(CCCc2cc(Cl)ccc21)CO3 (single isomer, unassigned) [Compound 11] ... 0.0

I wonder whether C[C@@H]1[C@@H](C)C/C=C(\F)[C@H](C(=O)N2CCC(F)(F)CC2)N2CCC[C@H]2CN2C[C@@]3(CCCc4cc(Cl)ccc43)COc3ccc(cc32)C(=O)NS1(=O)=O [Compound 43] has AC50 below 0.1 µM. Can you tell?
0.0

I wonder whether C[C@@H]1[C@@H](C)C/C=C(\F)[C@H](C(=O)N(C)C2CCOC2)N2CCC[C@H]2CN2C[C@@]3(CCCc4cc(Cl)ccc43)COc3ccc(cc32)C(=O)NS1(=O)=O (single isomer, unassigned) [Compound 69] has AC50 below 0.1 µM. Can you tell?
0.0

I wonder whether C[C@@H]1[C@@H](C)C/C=C(\F)[C@H](C(=O)N(C)CCC2CCOCC2)N2CCC[C@H]2CN2C[C@@]3(CCCc4cc(Cl)ccc43)COc3ccc(cc32)C(=O)NS1(=O)=O (single isomer, unassigned) [Compound 2] has AC50 below 0.1 µM. Can you tell?
1.0

I wonder whether C[C@@H]1[C@@H](C)C/C=C(\F)[C@H](C(=O)N(CCO)CCN2CCOCC2)N2CCC[C@H]2CN2C[C@@]3(CCCc4cc(Cl)ccc43)COc3ccc(cc32)C(=O)NS1(=O)=O [Compound 74] has AC50 below 0.1 µM. Can you tell?
0.0

---

AC50 overview
Tested on: MOLP-8 human multiple myeloma cell line
Assay: Caspase-Glo 3/7 apoptosis induction assay in MOLP-8 cells
Format: cell-based
Conditions: Homo sapiens, MOLP-8, 2 h, caspase-3/7 activity, 2 hours at 37° C.; averaged over all runs on all batches; read-out: MOLP8 AC50
// note: answer is a bare numeric in µM

Previously resolved entries follow.
C[C@@H]1[C@@H](C)C/C=C(\F)[C@H](C(=O)N(C)CC2CCCOC2)N2CCC[C@H]2CN2C[C@@]3(CCCc4cc(Cl)ccc43)COc3ccc(cc32)C(=O)NS1(=O)=O (single isomer, unassigned) [Compound 64] ... 0.0747
CC1CN(CCN(C)C(=O)[C@H]2/C(F)=C/C[C@H](C)[C@@H](C)S(=O)(=O)NC(=O)c3ccc4c(c3)N(C[C@@H]3CCCN32)C[C@@]2(CCCc3cc(Cl)ccc32)CO4)CC(C)O1 (stereo partly drawn) [Compound 44] ... 0.0873

Then this molecule:
Short answer please: AC50, MOLP-8 human multiple myeloma cell line, entry COCCN(CCOC)C(=O)[C@H]1/C(F)=C/C[C@H](C)[C@@H](C)S(=O)(=O)NC(=O)c2ccc3c(c2)N(C[C@@H]2CCCN21)C[C@@]1(CCOc2cc(Cl)ccc21)CO3 [Compound 77]
0.144

---

Please consider the recorded pKi for Myeloid Cell Leukemia 1(Mcl-1) (Homo sapiens) in what follows.
Reminder that pKi is minus the log10 of a molar concentration.

Previously resolved entries follow.
C[C@@H]1[C@@H](C)C/C=C(\F)[C@H](C(=O)N(C)CCn2cccn2)N2CCC[C@H]2CN2C[C@@]3(CCCc4cc(Cl)ccc43)COc3ccc(cc32)C(=O)NS1(=O)=O [Compound 61] ... 10.13
C[C@@H]1[C@@H](C)C/C=C(\F)[C@H](C(=O)N2CCCC3(C2)CC3(F)F)N2CCC[C@H]2CN2C[C@@]3(CCCc4cc(Cl)ccc43)COc3ccc(cc32)C(=O)NS1(=O)=O (some centres unmarked) [Compound 29] ... 9.31
COCCN(C)C(=O)[C@H]1/C(F)=C/C[C@H](C)[C@@H](C)S(=O)(=O)NC(=O)c2ccc3c(c2)N(C[C@@H]2CCCN21)C[C@@]1(CCCc2cc(Cl)ccc21)CO3 [Compound 21] ... 10.12

Sample CC1CN(CCN(C)C(=O)[C@H]2/C(F)=C/C[C@H](C)[C@@H](C)S(=O)(=O)NC(=O)c3ccc4c(c3)N(C[C@@H]3CCCN32)C[C@@]2(CCCc3cc(Cl)ccc32)CO4)CC(C)O1 (some centres unmarked) [Compound 44] — what was its pKi?
9.98

Sample C[C@@H]1[C@@H](C)C/C=C(\F)[C@H](C(=O)N2C[C@H]3C[C@@H]2CO3)N2CCC[C@H]2CN2C[C@@]3(CCCc4cc(Cl)ccc43)COc3ccc(cc32)C(=O)NS1(=O)=O [Compound 9] — what was its pKi?
9.89

---

Ki overview
Target: Myeloid Cell Leukemia 1(Mcl-1) (Homo sapiens, UniProt Q07820)
Sequence (Q07820 whole entry): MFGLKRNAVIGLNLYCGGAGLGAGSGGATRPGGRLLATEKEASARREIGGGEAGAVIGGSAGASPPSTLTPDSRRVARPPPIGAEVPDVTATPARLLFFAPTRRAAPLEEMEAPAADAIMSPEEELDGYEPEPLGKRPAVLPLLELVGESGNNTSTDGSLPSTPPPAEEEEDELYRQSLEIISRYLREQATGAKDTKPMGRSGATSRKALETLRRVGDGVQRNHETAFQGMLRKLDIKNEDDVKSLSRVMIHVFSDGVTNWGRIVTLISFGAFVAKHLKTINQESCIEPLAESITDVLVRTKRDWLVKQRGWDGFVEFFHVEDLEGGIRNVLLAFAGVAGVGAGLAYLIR
// note: answer is a bare numeric in nM

Previously resolved entries follow.
C[C@@H]1CN(C(=O)[C@H]2/C(F)=C/C[C@H](C)[C@@H](C)S(=O)(=O)NC(=O)c3ccc4c(c3)N(C[C@@H]3CCCN32)C[C@@]2(CCCc3cc(Cl)ccc32)CO4)CCO1 ... 0.084
C[C@@H]1COCCN1C(=O)[C@H]1/C(F)=C/C[C@H](C)[C@@H](C)S(=O)(=O)NC(=O)c2ccc3c(c2)N(C[C@@H]2CCCN21)C[C@@]1(CCCc2cc(Cl)ccc21)CO3 (single isomer, unassigned) ... 0.032
C[C@@H]1[C@@H](C)C/C=C(\F)[C@H](C(=O)N2CCOC3(CCC3)C2)N2CCC[C@H]2CN2C[C@@]3(CCCc4cc(Cl)ccc43)COc3ccc(cc32)C(=O)NS1(=O)=O ... 0.115
CO[C@H]1CN(C(=O)[C@H]2/C(F)=C/C[C@H](C)[C@@H](C)S(=O)(=O)NC(=O)c3ccc4c(c3)N(C[C@@H]3CCCN32)C[C@@]2(CCCc3cc(Cl)ccc32)CO4)C[C@H]1OC ... 0.022

Sample C[C@@H]1[C@@H](C)C/C=C(\F)[C@H](C(=O)N(C)CCN2CCOCC2)N2CCC[C@H]2CN2C[C@@]3(CCOc4cc(Cl)ccc43)COc3ccc(cc32)C(=O)NS1(=O)=O — what was its Ki?
0.016

Sample C[C@@H]1[C@@H](C)C/C=C(\F)[C@H](C(=O)N(C)CCN2CCOC(C(F)(F)F)C2)N2CCC[C@H]2CN2C[C@@]3(CCCc4cc(Cl)ccc43)COc3ccc(cc32)C(=O)NS1(=O)=O (single isomer, unassigned) — what was its Ki?
0.287

---

Test system: MOLP-8 human multiple myeloma cell line
Test: Caspase-Glo 3/7 apoptosis induction assay in MOLP-8 cells
Type: cell-based
Conditions: Homo sapiens, MOLP-8, 2 h, caspase-3/7 activity, 2 hours at 37° C.; averaged over all runs on all batches; read-out: MOLP8 AC50
Threshold 100 nM: AC50 strictly smaller gives rule met, otherwise rule not met.

These solved cases illustrate the format of a correct answer.
C[C@@H]1[C@@H](C)C/C=C(\F)[C@H](C(=O)N(C)CC2CCOC2)N2CCC[C@H]2CN2C[C@@]3(CCCc4cc(Cl)ccc43)COc3ccc(cc32)C(=O)NS1(=O)=O (single isomer, unassigned) [Compound 56] ... rule met
C[C@@H]1[C@@H](C)C/C=C(\F)[C@H](C(=O)N2CCOC3(CCC3)C2)N2CCC[C@H]2CN2C[C@@]3(CCCc4cc(Cl)ccc43)COc3ccc(cc32)C(=O)NS1(=O)=O [Compound 26] ... rule not met
COCCN(CCOC)C(=O)[C@H]1/C(F)=C/C[C@H](C)CS(=O)(=O)NC(=O)c2ccc3c(c2)N(C[C@@H]2CCCN21)C[C@@]1(CCCc2cc(Cl)ccc21)CO3 [Compound 88] ... rule not met
Cc1nc(CN(C)C(=O)[C@H]2/C(F)=C/C[C@H](C)[C@@H](C)S(=O)(=O)NC(=O)c3ccc4c(c3)N(C[C@@H]3CCCN32)C[C@@]2(CCCc3cc(Cl)ccc32)CO4)co1 [Compound 80] ... rule not met
C[C@@H]1[C@@H](C)C/C=C(\F)[C@H](C(=O)N2CCN(C)C3(CC3)C2)N2CCC[C@H]2CN2C[C@@]3(CCCc4cc(Cl)ccc43)COc3ccc(cc32)C(=O)NS1(=O)=O [Compound 83] ... rule not met
C[C@@H]1[C@@H](C)C/C=C(\F)[C@H](C(=O)N(C)CCOc2cncc(F)c2)N2CCC[C@H]2CN2C[C@@]3(CCCc4cc(Cl)ccc43)COc3ccc(cc32)C(=O)NS1(=O)=O [Compound 48] ... rule not met

I wonder whether COCCN(CCOC)CCN(C)C(=O)[C@H]1/C(F)=C/C[C@H](C)[C@@H](C)S(=O)(=O)NC(=O)c2ccc3c(c2)N(C[C@@H]2CCCN21)C[C@@]1(CCCc2cc(Cl)ccc21)CO3 [Compound 73] has AC50 below 100 nM. Can you tell?
rule met

I wonder whether COCCCN(C)C(=O)[C@H]1/C(F)=C/C[C@H](C)[C@@H](C)S(=O)(=O)NC(=O)c2ccc3c(c2)N(C[C@@H]2CCCN21)C[C@@]1(CCCc2cc(Cl)ccc21)CO3 (single isomer, unassigned) [Compound 51] has AC50 below 100 nM. Can you tell?
rule met

I wonder whether C[C@@H]1[C@@H](C)C/C=C(\F)[C@H](C(=O)N2CCOCC2)N2CCC[C@H]2CN2C[C@@]3(CCCc4cc(Cl)ccc43)COc3ccc(cc32)C(=O)NS1(=O)=O [Compound 8] has AC50 below 100 nM. Can you tell?
rule not met
